Taken from patent US20240376151A1.

Target: MDM2 (Homo sapiens, UniProt Q00987)
Construct: made in house
Sequence (Q00987 25-109): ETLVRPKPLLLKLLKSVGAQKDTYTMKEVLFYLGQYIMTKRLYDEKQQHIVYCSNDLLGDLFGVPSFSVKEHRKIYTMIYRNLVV
Test: Naive Library Presenter Screening (phage, NGS), MDM2
Assay type: binding
Conditions: MDM2 clusters (C82, C85); target concentration 300 nM
Numbered stars: 1 amine (or outer) side, 2 acyl side, 3 side chain; on linkers, the order of the positions; unused ones are H or OH. Bridge positions count the residues as written; N and C are the ends. Ends that are not written are not given here. Phenylene(1,4-NHCOCH2)2 = O=C(C[*:1])Nc1ccc(NC(=O)C[*:2])cc1
OUTCOME_MEASURE: interaction data at Target Concentration 300

DPAAQECFRAAWRCMQD (linker 7-14 via Phenylene(1,4-NHCOCH2)2 (inferred))	37

a. DPALFSCDSAAFSCYWY (linker 7-14 via Phenylene(1,4-NHCOCH2)2 (inferred); not fully specified (C-terminus))
b. DPASQDCFSAAWQCLQT (DPASQDCFSAAWQCLQT-NH2; linker 7-14 via Phenylene(1,4-NHCOCH2)2 (inferred))
c. DPAQSDCFQAAWECVAN (DPAQSDCFQAAWECVAN-NH2; linker 7-14 via Phenylene(1,4-NHCOCH2)2 (inferred))
Your job: order these 3 records by interaction data at Target Concentration 300, ascending. In plain terms: list the labels in the order you were asked to.
a, c, b

----------
Molecular target: FBXW7-SKP1 (Homo sapiens, UniProt Q969H0)
Construct: FBXW7 (Uniprot ID: Q969H0, residues 263-706) with an N-terminal GST-TEV tag and C-terminal AVI tag; GST-TEV (N); made in house; host or cells: E. coli BL21 (DE3)
Sequence (Q969H0 263-706): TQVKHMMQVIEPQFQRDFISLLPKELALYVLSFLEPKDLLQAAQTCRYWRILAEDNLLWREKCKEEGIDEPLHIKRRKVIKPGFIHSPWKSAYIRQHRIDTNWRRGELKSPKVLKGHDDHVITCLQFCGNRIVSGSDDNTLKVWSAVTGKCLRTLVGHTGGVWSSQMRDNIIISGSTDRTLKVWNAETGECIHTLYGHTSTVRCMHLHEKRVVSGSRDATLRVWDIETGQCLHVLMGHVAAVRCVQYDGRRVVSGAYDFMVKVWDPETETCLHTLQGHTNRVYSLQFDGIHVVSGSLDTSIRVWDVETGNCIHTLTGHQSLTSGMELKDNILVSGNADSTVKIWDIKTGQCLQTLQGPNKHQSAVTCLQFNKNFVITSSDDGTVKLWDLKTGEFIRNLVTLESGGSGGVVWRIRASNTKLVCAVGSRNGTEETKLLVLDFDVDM
Sequence (P63208 whole entry partner, the tested form may be a part): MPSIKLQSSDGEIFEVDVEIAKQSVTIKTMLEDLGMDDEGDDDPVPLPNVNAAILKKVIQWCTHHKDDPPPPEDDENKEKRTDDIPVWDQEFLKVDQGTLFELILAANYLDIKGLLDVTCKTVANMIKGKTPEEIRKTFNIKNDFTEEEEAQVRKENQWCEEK
Assay: Naive Library Presenter Screening (phage, NGS), FBXW7-SKP1
Format: binding
Settings: FBXW7 target concentration 100 nM
Numbered stars: 1 amine (or outer) side, 2 acyl side, 3 side chain; on linkers, the order of the positions; unused ones are H or OH. Bridge positions count the residues as written; N and C are the ends. Ends that are not written are not given here. Phenylene(1,4-NHCOCH2)2 = O=C(C[*:1])Nc1ccc(NC(=O)C[*:2])cc1
OUTCOME_MEASURE: interaction data at Target Concentration 100

See these solved cases before continuing.
DPADLTCEDAAELCEFW	352
DPATYFCYDAAELCDWW	1
DPADMMCENAALLCEFW	68
DPAAWICEEAAEICEFW	5

1. DPAITTCLDAAELCDFW
2. DPAIRMCRDAAELCEFW
For 1 and 2 , which recorded interaction data at Target Concentration 100 is lower? Respond with the label that goes with your answer.
2

a. DPANIACDDAALLCELW
b. DPAFWYCDEAAEMCEFW
c. DPAMTWCLNAAELCEFW
Hello, I need these entries ordered by interaction data at Target Concentration 100, highest reading first. Thanks! Put the labels in the requested order and list them out.
b, a, c
(b: 20, a: 1, c: 0)

A. DPAYFSCEDAAELCEWY
B. DPANWVCMDAAELCDFY (DPANWVCMDAAELCDFY-NH2; linker 7-14 via Phenylene(1,4-NHCOCH2)2 (inferred))
C. DPADMYCRDAAELCEFW
D. DPAAFFCDDAAERCEFW
E. DPANIACDDAALLCAFW
// ranking: key=interaction data at Target Concentration 100, reverse=True Reply with the labels, ordered as the question asks.
C, D, B, E, A
(C: 187, D: 35, B: 5, E: 2, A: 1)
